Target: ATP-binding cassette sub-family C member 2 (Rattus norvegicus, UniProt Q63120)
Sequence (Q63120 whole entry): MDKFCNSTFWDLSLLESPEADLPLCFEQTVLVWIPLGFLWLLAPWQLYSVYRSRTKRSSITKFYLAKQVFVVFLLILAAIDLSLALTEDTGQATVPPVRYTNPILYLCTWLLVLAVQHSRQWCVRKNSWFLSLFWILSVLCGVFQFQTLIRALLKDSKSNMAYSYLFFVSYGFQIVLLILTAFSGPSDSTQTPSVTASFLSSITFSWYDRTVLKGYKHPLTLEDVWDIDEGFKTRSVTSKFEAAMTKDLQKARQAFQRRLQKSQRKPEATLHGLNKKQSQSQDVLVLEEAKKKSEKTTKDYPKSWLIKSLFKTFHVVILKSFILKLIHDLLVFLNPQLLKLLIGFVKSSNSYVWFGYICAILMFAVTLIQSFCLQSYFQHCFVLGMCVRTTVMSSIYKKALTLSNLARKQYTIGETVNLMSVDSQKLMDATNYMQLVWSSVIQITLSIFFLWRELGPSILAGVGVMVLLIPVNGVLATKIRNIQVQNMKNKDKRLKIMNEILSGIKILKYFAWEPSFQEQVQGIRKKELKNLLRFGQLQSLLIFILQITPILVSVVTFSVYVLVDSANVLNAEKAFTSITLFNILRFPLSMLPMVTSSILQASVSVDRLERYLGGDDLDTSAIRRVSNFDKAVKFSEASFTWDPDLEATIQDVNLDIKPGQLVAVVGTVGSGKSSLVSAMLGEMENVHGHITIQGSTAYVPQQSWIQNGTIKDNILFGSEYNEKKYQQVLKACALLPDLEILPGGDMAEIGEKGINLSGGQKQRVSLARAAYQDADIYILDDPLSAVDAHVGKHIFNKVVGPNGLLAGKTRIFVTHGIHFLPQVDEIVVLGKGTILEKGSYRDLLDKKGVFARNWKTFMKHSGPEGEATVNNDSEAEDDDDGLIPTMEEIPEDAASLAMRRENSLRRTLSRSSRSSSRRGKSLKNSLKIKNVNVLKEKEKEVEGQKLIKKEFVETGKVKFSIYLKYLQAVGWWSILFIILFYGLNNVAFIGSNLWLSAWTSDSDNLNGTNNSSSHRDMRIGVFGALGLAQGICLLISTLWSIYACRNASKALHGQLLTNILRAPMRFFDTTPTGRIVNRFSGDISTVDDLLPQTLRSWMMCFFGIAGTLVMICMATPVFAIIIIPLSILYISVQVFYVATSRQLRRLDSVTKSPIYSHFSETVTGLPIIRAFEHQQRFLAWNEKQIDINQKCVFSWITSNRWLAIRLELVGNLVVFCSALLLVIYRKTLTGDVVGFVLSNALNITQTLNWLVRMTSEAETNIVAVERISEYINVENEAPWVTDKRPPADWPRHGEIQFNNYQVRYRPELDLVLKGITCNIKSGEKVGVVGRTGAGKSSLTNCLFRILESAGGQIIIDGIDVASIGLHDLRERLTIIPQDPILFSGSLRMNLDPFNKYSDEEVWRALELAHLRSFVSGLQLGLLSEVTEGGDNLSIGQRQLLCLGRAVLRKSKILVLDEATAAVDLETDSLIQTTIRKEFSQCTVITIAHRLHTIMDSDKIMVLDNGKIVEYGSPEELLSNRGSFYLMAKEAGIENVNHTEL
Test: Inhibition of ATPase activity of rat Mrp2 assessed as inorganic phosphate
Reported IC50 values for the following compounds.

Check out these entries, answers already filled in.
COCC(COC)NC(=O)c1nc(N2CC[C@@H](NC(=O)c3[nH]c(C)c(Cl)c3Cl)[C@@H](OC)C2)sc1C(=O)O: 75 µM
COCCNC(=O)c1nc(N2CC[C@@H](NC(=O)c3[nH]c(C)c(Cl)c3Cl)[C@@H](OC)C2)sc1C(=O)O: 78 µM
CO[C@H]1CN(c2ncc(C(=O)O)s2)CC[C@H]1NC(=O)c1[nH]c(C)c(Cl)c1Cl: > 200 µM
COC[C@H](C)NC(=O)c1nc(N2CC[C@@H](NC(=O)c3[nH]c(C)c(Cl)c3Cl)[C@@H](OC)C2)sc1C(=O)O [AZD-5099]: 200 µM
Cc1[nH]c(C(=O)NC2CCN(c3ncc(C(=O)O)s3)CC2)c(Cl)c1Cl: > 200 µM

For reference, reported IC50 for CO[C@H]1CN(c2nc(-c3ncnn3C)c(C(=O)O)s2)CC[C@H]1NC(=O)c1[nH]c(C)c(Cl)c1Cl stands at > 200 µM
